Would you kindly list protein stability index for each of these sequences?
test: protein stability index of a GFP-peptide fusion (yeast GPS) (PSI 1-4); higher = more stable; sorted into four equal gates, so the index is relative within each strain; settings: san1∆
Answers are plain numbers.

[[record]]
sequence_text = "VSKKWAAAAVCEKWAAS [RPL14A]"
obs_value = 2.6

[[record]]
sequence_text = "YKNHELLKLERKKTEAV [SNF2]"
obs_value = 3.08

[[record]]
sequence_text = "LSFINPKTGKVERSEAI [SEC65]"
obs_value = 3.33

[[record]]
sequence_text = "IESQMRDLILTEYGRKY [PRP8]"
obs_value = 1.98

[[record]]
sequence_text = "EELLAQYESQAPDGSAS [SWP82]"
obs_value = 3.13

[[record]]
sequence_text = "NIKSSISNGNLATGPNL [YOR098C/NUP1]"
obs_value = 2.99

[[record]]
sequence_text = "KSNRSYSIALSNVAAIF [GAL11]"
obs_value = 1.4

[[record]]
sequence_text = "GIKPPKGVLLYGPPGTG [RPT4]"
obs_value = 2.22


Consider the following items and state reported protein stability index for each.
1. EQQVKEAEMAYVKAVSD [SMC4]
2. LVLDLLTWLSSFSVCKI [IRR1]
3. VRTNTLTKAAIVQIDAT [RPS8A]

Result:
1. 2.83
2. 1.65
3. 2.37

Hey, can you go through the list below and give me protein stability index for every item?
1. GQLGLDDNDVPGPLPDT [YLR018C/POM34]
2. NEEATPIPSSETKADGI [RRP6]
3. EMKNIRGPYLVIVPLST [SNF2]
4. LVDDENEPSQSLISTRN [BRN1]
5. GIACAGKGLQSAIDVLD [RPN2]
6. TATYNDNMSEEQWLRQF [SNF2]
7. TMTYEEVAKRLVELMFI [FAS1]

Result:
1. 2.37
2. 3.04
3. 1.44
4. 3.19
5. 2.48
6. 3.27
7. 2.52

List the reported protein stability index of each sequence below.
1. FSLLVKAEIPPEYAKVG [SIN4]
2. SQPTNSTTTSLHVPNLQ [SMC4]

Result:
1: 2.52; 2: 2.21

# batch size: 3; output protein stability index per entry
1. IVAQSEVEVSTRDLFDL [RPO31]
2. VKAFLSIFEDAIKELNY [NUT1]
3. NKEMHTDLGKDIPFFPS [SSN2]

Result:
1: 3.3; 2: 2.55; 3: 2.52

---

assay: protein stability index of a GFP-peptide fusion (yeast GPS) (PSI 1-4); higher = more stable; sorted into four equal gates, so the index is relative within each strain; conditions: ubr1∆
So basically: protein stability index at 2 or higher? That is Satisfied. Lower than 2? That is Not satisfied.

Illustrative cases are given below, each with its answer.
[[record]]
sequence_text = "HMDYDGNIVKEFENKFQ [YMR129W/POM152]"
label_value = "Satisfied"

[[record]]
sequence_text = "ELESITESITHDSSNGL [NUT1]"
label_value = "Satisfied"

[[record]]
sequence_text = "LTLLERKWVIFITKHLP [NUT1]"
label_value = "Satisfied"


Request: Determine whether this sequence has protein stability index no lower than 2: YKEIRDVSRVAAVETLY [RPL20A]
Result: Not satisfied

Request: Also, VPHYNRLDSYKVIEQPI [RPL25] please.
Result: Satisfied

Request: And then WKFKSLIEILRLRALQL [RRI2] , what is it?
Result: Not satisfied

Request: Can you check DRTMLAPMDFAIVVGWR [FAS1] next?
Result: Not satisfied

Request: Follow-up entry: MSLEPTQTVSGTPPMLH [DSN1]
Result: Satisfied

Request: Can you handle LLERGRLRKRVTIIPLD [SMC2] next?
Result: Satisfied

---

So I've got a bunch of sequences here, and I need their protein stability index values.
assay: protein stability index of a GFP-peptide fusion (yeast GPS) (PSI 1-4); higher = more stable; sorted into four equal gates, so the index is relative within each strain; details: san1∆
Numbers only.

Example entries begin here.
[[record]]
sequence_text = "VQGLLQNAAANAEAKGL [RPL17A]"
attribute_measured = "protein stability index"
obs_value = 2.06

[[record]]
sequence_text = "VPPPPVRPSISFNESQR [RPO21]"
attribute_measured = "protein stability index"
obs_value = 2.62


List the reported protein stability index of each sequence below.
1. WNWAKQSLLSLYFEIIH [FAS2]
2. TRTIKQNNFHVLIDLLN [RGR1]
3. ESPLSVAIQQGDIKPEF [YML103C/NUP188]
4. ETEEIDPELLRSYIFGG [RPL5]
5. EIDTILSTLRMEADPSL [RPN9]

Result:
1. 1.76
2. 1.87
3. 1.95
4. 3.3
5. 2.56

I'm hoping you can list protein stability index for every sequence here, please.
1. SHVENLEEKLYQMQSNY [YIL149C/MLP2]
2. GKQIKSTIYNWGDNKLA [YML103C/NUP188]
3. GNYIKTENATENDQQDN [LIN1]
4. PNNASSHISASASPHLA [SNF2]
5. ILYEIRALYTPFLLMEL [YDL116W/NUP84]

Result:
2.54
2.82
2.05
2.51
2.79

---

assay: protein stability index of a GFP-peptide fusion (yeast GPS) (PSI 1-4); higher = more stable; sorted into four equal gates, so the index is relative within each strain; conditions: ubr1∆
Please respond with reported protein stability index for every item in the list.

Reference set, count: 10
[[record]]
sequence_text = "LIEKEIQPKITELKKKL [SMC1]"
obs_value = 3.02

[[record]]
sequence_text = "QVGDGLEILIVTKDGVR [PRE7]"
obs_value = 2.76

[[record]]
sequence_text = "HDGGFDLVHIKDSLDNT [RPS4A]"
obs_value = 2.33

[[record]]
sequence_text = "SSGQDKKKKKGSNQKPK [RPT2]"
obs_value = 3.1

[[record]]
sequence_text = "FDVNNIDMHLIYGVEWL [YDL116W/NUP84]"
obs_value = 2.27

[[record]]
sequence_text = "KGKARLGTLVNQKTSAV [RPL8A]"
obs_value = 2.94

[[record]]
sequence_text = "KRLLYTRRFVNVTLVNG [RPS30A]"
obs_value = 1.91

[[record]]
sequence_text = "NGLLNEISRLKTSLSIK [SMC2]"
obs_value = 3.11

[[record]]
sequence_text = "EQHEEKAAEGEEKEEEN [QCR6]"
obs_value = 3.23

[[record]]
sequence_text = "AVTEREVLVTPGLEFLD [MCD1]"
obs_value = 2.94


// batch mode: one protein stability index value per listed entry
1. AKQALDLYHFALNYENE [SNF2]
2. KIINTHSDMASKMYNTD [PRP8]
3. LPYERHMISQEGIKETQ [SWI1]
4. SNGIFYGPSFTKRESLN [SIR2]
5. SDFISKLEYPHTDVSSS [RPN3]

Result:
1. 1.83
2. 2.28
3. 1.27
4. 3.07
5. 2.5

Can you give me protein stability index for all of these, one by one?
1. NSQERVQDLGSAISVTN [SIR2]
2. ANLPANSSTSPAPSIPS [YLR335W/NUP2]
3. VMLRLLLVVIFKKTLRS [SRB4]
4. KYISAELYAQLRENGLV [SNU114]
5. SMSLQSKNLGEINTALN [SWI1]

Result:
1: 3.25; 2: 2.86; 3: 1.23; 4: 3.07; 5: 3.08

Hey, can you go through the list below and give me protein stability index for every item?
1. IPFQTLYRSIESGEFDF [YJL039C/NUP192]
2. TEAVTQLIGSNIELHSL [PUP1]
3. NFEAVFERLVPRGTAKL [SMC3]

Result:
1. 1.99
2. 2.96
3. 2.83

---

assay: protein stability index of a GFP-peptide fusion (yeast GPS) (PSI 1-4); higher = more stable; sorted into four equal gates, so the index is relative within each strain; conditions: san1∆
Group membership follows protein stability index per the scheme lowest: < 2; middle: ≥ 2 and < 3; highest: ≥ 3

Field: example entries. Status: answers known.
[[record]]
sequence_text = "RDIFQEDEENSDVLLFQ [RGR1]"
label_value = "highest"

[[record]]
sequence_text = "TEAVTQLIGSNIELHSL [PUP1]"
label_value = "highest"

[[record]]
sequence_text = "RASDLRMTIRTRGRSAT [RRP43]"
label_value = "middle"

[[record]]
sequence_text = "ISRNGDTSYKIDGKTVS [SMC1]"
label_value = "middle"

[[record]]
sequence_text = "ILAMTYSENGKHDSLRY [RPN1]"
label_value = "middle"


Request: State the class of the sequence shown: QNIILRSTMMKFLKIAS [RPN3]
Result: middle

---

assay: protein stability index of a GFP-peptide fusion (yeast GPS) (PSI 1-4); higher = more stable; sorted into four equal gates, so the index is relative within each strain; conditions: ubr1∆
YES means recorded protein stability index is 3 or above; NO means it is below 3.

[[record]]
sequence_text = "EDDNTPAGHAGNPTNIS [YDL088C/ASM4]"
label_value = "YES"

[[record]]
sequence_text = "AFEELEGSWDRGIPRIS [PRP8]"
label_value = "YES"

[[record]]
sequence_text = "LMAQIFFGPTYYQRLRH [RPB2]"
label_value = "NO"


Now look at this one.
Request: Quick check: does FDDILKVGAEMMMQQQL [MED2] have protein stability index greater than or equal to 3?
Result: NO
